Experiment: Processing / curing time of the adhesive from prepolymer A-1 and secondary diamine
Type: physicochemical
Conditions: diamine as curing agent for prepolymer A-1
readout_name: Processing time (min)

CCC(C)C(NCCCNC(C(=O)OC)C(C)CC)C(=O)OC (stereo not shown) | 3
COC(=O)C(Cc1ccccc1)NCCCNC(Cc1ccccc1)C(=O)OC (stereo not shown) | 4
COC(=O)C(Cc1ccccc1)NCCCCCCNC(Cc1ccccc1)C(=O)OC (stereo not shown) | 4
CCOC(=O)C(C)NCCCCCNC(C)C(=O)OCC (stereo not shown) | 0.55
CCOC(=O)C(C)NCCCCNC(C)C(=O)OCC (stereo not shown) | 0.7
COC(=O)C(CC(C)C)NCCCCCNC(CC(C)C)C(=O)OC (stereo not shown) [drawing 17] | 4
COC(=O)C(NCCCNC(C(=O)OC)C(C)C)C(C)C (stereo not shown) | 4
